- assayOverview: Octanol/buffer partition, experimental logP
- Format: physicochemical
- runParameters: buffer saturated 1-octanol vs 0.1 M sodium phosphate buffer (pH 7.4)
property: Concentration in octanol (µM)

COC(=O)c1ccc(NC(=O)NC23CC4CC(CC(C4)C2)C3)cc1
2445

[I] O=C(Nc1cccc(C(=O)N2CCC(N3CCOCC3)CC2)c1)NC12CC3CC(CC(C3)C1)C2
[II] O=C(Nc1ccc(C(=O)O)c(O)c1)NC12CC3CC(CC(C3)C1)C2
[III] COC(=O)c1ccc(NC(=O)NC23CC4CC(CC(C4)C2)C3)cc1O
Arrange the 3 molecules by rising Concentration in octanol, starting with the smallest. // rank by listing labels in the order requested
II, I, III
(II: 1641 µM, I: 2720 µM, III: 3886 µM)

* * *

- assayOverview: Solubility in water
- Format: physicochemical
- runParameters: sodium phosphate buffer, pH 7.4
property: solubility (µg/mL)
The reply should contain only the number, in µg/mL.

Could you share which solubility value was measured for O=C(Nc1cccc(C(=O)N2CCC(N3CCOCC3)CC2)c1)NC12CC3CC(CC(C3)C1)C2 [Compound 17] ?
10000
